Cited source: the supplement of paper PMC10567573

B1: USP39 (parent)
chain: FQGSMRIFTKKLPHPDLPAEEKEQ

variants of: B1; test: protein stability index of a GFP-peptide fusion (GPS, HEK-293T) (PSI 1-6); higher = more stable; details: c terminus: a fixed tail appended;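 further: lentivirally expressed fusions sorted by FACS into six bins by GFP to DsRed ratio, PSI derived from sequencing read proportions per bin multiplied by bin number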
protein stability index overview
PROPERTY: protein stability index

[[record]]
variant_descriptor = "T9R"
property = "protein stability index"
experimental_value = 2.23

[[record]]
variant_descriptor = "I7P"
property = "protein stability index"
experimental_value = 1.93

[[record]]
variant_descriptor = "A19N"
property = "protein stability index"
experimental_value = 1.79

